target: cloned human or rodent CNS receptors, channels, and transporters (PDSP panel) (Homo sapiens); construct: expressed in transfected cells; assay: PDSP GPCR panel primary binding assays at 10 μM; conditions: M5; primary assay, replicate 1
Sequence (P08912 whole entry): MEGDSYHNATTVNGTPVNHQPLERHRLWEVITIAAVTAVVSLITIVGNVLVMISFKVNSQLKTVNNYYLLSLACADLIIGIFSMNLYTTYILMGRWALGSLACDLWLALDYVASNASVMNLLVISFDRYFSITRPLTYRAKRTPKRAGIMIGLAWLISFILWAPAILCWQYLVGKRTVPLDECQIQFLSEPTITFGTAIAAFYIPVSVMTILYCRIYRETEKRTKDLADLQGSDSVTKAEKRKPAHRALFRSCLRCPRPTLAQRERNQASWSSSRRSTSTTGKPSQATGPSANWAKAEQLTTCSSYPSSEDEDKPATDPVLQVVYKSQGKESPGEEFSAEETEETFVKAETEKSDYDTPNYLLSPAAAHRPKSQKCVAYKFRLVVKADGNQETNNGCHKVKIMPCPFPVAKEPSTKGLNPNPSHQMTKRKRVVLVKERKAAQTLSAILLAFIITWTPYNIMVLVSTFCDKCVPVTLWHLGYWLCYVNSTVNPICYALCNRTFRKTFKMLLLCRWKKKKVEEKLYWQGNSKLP
Observed property: Inhibition 1 (%)
// units = %; emit number, no label

Molecule	Measurement unit	Inhibition 1
CNc1nc(C)nc(N[C@H]2CCC[C@@H](C(=O)NCc3ccc(C#N)cc3C(F)(F)F)C2)n1 [UNC10302679A, GSK2256294A]	%	1.27
CC(=O)N1CCC(NC(=O)NC23CC4CC(CC(C4)C2)C3)CC1 [UNC10302683A, AR9281]	%	0.06
O=C(NC1CC1)C(=O)C(Cc1ccccc1)NC(=O)[C@H]1CCC(=O)N1Cc1ccccc1 (stereo partly shown) [UNC10302676A, ABT-957 (Alicapistat)]	%	2.18

Please look at the following molecule next.
Consider the molecule shown here: CCC(=O)N1CCC(NC(=O)Nc2ccc(OC(F)(F)F)cc2)CC1 [UNC10302681A, TPPU] What is its recorded Inhibition 1?
18.08
